Sourced from the supplement of paper PMC10681739

- target.system: RUNX1 (UniProt Q01196)
- Sequence (Q01196 whole entry): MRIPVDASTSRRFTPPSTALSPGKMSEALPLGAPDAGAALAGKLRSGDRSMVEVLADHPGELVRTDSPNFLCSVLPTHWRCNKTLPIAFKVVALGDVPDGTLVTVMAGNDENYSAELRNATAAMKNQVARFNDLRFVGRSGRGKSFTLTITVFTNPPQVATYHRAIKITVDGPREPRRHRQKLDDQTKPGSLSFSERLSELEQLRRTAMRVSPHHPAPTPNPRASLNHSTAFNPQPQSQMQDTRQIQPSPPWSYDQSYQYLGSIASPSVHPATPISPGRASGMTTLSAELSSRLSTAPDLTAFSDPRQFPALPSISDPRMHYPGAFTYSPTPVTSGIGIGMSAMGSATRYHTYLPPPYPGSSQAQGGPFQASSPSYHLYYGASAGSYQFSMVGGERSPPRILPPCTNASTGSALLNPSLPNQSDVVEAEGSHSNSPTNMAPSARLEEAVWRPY
- assay.name: RUNX1 binding intensity (PBM fluorescence), RUNX1 alone (arbitrary fluorescence units); higher = stronger binding
- run.parameters: RUNX1 concentration 2 nM; ETS1 concentration 0 nM
Over roughly 4,000 sequences, “arbitrary fluorescence units” has its median near 830; the highest 2% begin near 6,500. The list comes from a sample in which the highest values are over-represented; it also holds close analogues and randomly drawn sequences.
Kindly return yes (1) if reported RUNX1 binding intensity is no lower than 800; return no (0) if it is lower.

TCCGCTTCTGTGGTCTGATCTTGCTGGGGCTGAACC    yes (1)

[Q] Could you verify whether the entry AAAACGCGCAAATACGGTGGCTGCGGCCCGCGGGCA shows RUNX1 binding intensity of no less than 800?
[A] no (0)

[Q] Could you verify whether the entry CATTGTGGGCGCTGTAGTCCAGCTGGAACCTGTTTG shows RUNX1 binding intensity of no less than 800?
[A] no (0)

[Q] Could you verify whether the entry CCCCTTGCCGTTCTCCGAAAGTGCGCGGGTTGGAGC shows RUNX1 binding intensity of no less than 800?
[A] yes (1)

###

- target.system: RUNX1 (UniProt Q01196)
- assay.name: RUNX1 binding intensity (PBM fluorescence), RUNX1 alone (arbitrary fluorescence units); higher = stronger binding
- run.parameters: RUNX1 concentration 2 nM; ETS1 concentration 0 nM
Whole data set: some 4,000 sequences, median “arbitrary fluorescence units” near 830, cut for the highest 2% near 6,500. The sample as a whole holds a higher share of the highest values than the screen did.
Kindly return rule met if reported RUNX1 binding intensity is no lower than 800; return rule not met if it is lower.

TCACAATCGCCCACAAAGACAGCAAGTAACTGTCAG    rule met

[Q] Could you verify whether the entry CTGGAACCGCAGGATCCTTGCTGCGTCCTCTCGGTC shows RUNX1 binding intensity of no less than 800?
[A] rule met

[Q] Could you verify whether the entry CCTTAGCACAGACCACCATCTACGGGAATTCCTAAG shows RUNX1 binding intensity of no less than 800?
[A] rule met

[Q] Could you verify whether the entry TGTGGCAACCACAGCCCCAAAACAAAGAGGAGACAC shows RUNX1 binding intensity of no less than 800?
[A] rule met

[Q] Could you verify whether the entry AGGCTTTCTGTTTTATCTCGTGTGTGTGGTGCACCA shows RUNX1 binding intensity of no less than 800?
[A] rule met

[Q] Could you verify whether the entry AAGAAAGGTTCCAGCCTGCGCCCTGCTACCGCGGCG shows RUNX1 binding intensity of no less than 800?
[A] rule not met

[Q] Could you verify whether the entry AGAGTCTTTTTTACTGAGCGTTTGCGGTTTTGACTT shows RUNX1 binding intensity of no less than 800?
[A] rule met

[Q] Could you verify whether the entry CTGGCCGTGGCGTACGGGAGCTGTGGGGCCGTCCCC shows RUNX1 binding intensity of no less than 800?
[A] rule not met

[Q] Could you verify whether the entry AGGGTTTGTGGGACCTGGTGACTCACGGGATCTGGG shows RUNX1 binding intensity of no less than 800?
[A] rule not met

[Q] Could you verify whether the entry TTACAGGGGCCGGGAGTGGCCTGCGGGCGGAGAAGT shows RUNX1 binding intensity of no less than 800?
[A] rule not met

[Q] Could you verify whether the entry GGGCTTGACCGCCATGTTTGAAGCGGGCGCAAAAAA shows RUNX1 binding intensity of no less than 800?
[A] rule not met
